For each entry below, report its pIC50 value.
Test system: Radical scavenging activity
Assay: Antioxidant activity assessed as inhibition of DPPH radical […]
Type: functional
Give bare numbers, as −log10 of the molar value.

CCCc1nc(N2CCN(C)CC2)nc2c1Nc1ccccc1S2    4.76
CCCc1nc(N2CCOCC2)nc2c1Nc1ccccc1S2    3.17
CCCc1nc(N2CCCCC2)nc2c1Nc1ccccc1S2    3.21
CCCc1nc(N2CCCC2)nc2c1Nc1ccccc1S2    3.51

Please give pIC50, item by item, for the list that follows.
1. CCCc1nc(N2CCN(c3ccccc3)CC2)nc2c1Nc1ccccc1S2
2. CCCc1nc(N2CCC(C)CC2)nc2c1Nc1ccccc1S2
3. Cc1nc(N2CCN(C)CC2)nc2c1Nc1ccccc1S2

[3.45, 3.22, 4.16]
